Target: angiotensin converting enzyme (Oryctolagus cuniculus)
Sequence (P12822 34-1310): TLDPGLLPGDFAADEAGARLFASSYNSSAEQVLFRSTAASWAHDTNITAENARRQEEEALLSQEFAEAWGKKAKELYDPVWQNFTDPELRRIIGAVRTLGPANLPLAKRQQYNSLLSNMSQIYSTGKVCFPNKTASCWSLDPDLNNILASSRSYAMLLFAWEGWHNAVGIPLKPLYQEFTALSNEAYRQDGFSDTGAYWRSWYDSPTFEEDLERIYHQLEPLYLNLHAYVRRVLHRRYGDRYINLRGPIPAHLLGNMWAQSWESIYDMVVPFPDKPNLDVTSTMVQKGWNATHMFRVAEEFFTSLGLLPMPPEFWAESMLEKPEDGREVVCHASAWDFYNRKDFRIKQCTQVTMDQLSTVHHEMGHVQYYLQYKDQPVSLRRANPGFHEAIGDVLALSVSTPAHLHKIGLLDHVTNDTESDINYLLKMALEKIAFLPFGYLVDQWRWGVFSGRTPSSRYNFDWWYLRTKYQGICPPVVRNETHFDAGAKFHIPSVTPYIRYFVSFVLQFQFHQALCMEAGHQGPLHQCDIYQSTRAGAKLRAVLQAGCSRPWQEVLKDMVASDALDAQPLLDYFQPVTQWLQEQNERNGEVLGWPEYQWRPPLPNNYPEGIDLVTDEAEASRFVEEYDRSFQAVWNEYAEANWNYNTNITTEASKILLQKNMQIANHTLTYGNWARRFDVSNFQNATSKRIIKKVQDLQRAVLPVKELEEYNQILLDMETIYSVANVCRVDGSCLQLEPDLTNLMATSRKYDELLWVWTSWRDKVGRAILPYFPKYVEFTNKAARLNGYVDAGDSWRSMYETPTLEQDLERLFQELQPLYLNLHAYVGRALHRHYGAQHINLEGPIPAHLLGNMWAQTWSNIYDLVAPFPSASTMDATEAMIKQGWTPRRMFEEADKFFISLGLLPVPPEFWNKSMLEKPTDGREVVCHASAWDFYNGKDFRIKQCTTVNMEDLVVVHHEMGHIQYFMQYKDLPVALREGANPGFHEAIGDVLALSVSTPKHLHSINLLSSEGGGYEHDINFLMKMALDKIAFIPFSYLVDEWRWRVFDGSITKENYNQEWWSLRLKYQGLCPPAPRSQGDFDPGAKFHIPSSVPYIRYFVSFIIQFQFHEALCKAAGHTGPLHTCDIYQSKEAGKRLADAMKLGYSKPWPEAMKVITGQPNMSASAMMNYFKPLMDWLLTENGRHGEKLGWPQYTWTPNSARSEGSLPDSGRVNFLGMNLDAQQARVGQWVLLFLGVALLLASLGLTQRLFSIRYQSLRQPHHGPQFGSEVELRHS
Parameter: IC50 (µM)
# value in µM; strip the unit string

QUERY: Query IC50 on angiotensin converting enzyme (Oryctolagus cuniculus) for O=C(O)C(Cc1ccccc1)N[C@H]1CCC(=O)N2CCC[C@@H](C(=O)O)N2C1=O (mixture of isomers) [Compound E]
RESULT: 0.026

QUERY: Query IC50 on angiotensin converting enzyme (Oryctolagus cuniculus) for CC(C)CCC(N[C@H]1CCC(=O)N2CCC[C@@H](C(=O)O)N2C1=O)C(=O)O (mixture of isomers) [Compound F]
RESULT: 0.012
